Here the recorded Kd is given for each entry.
- target under test: p38α (Homo sapiens, UniProt Q16539)
- Construct: phage display fusion
- Sequence (Q16539 whole entry, the tested form may be a part): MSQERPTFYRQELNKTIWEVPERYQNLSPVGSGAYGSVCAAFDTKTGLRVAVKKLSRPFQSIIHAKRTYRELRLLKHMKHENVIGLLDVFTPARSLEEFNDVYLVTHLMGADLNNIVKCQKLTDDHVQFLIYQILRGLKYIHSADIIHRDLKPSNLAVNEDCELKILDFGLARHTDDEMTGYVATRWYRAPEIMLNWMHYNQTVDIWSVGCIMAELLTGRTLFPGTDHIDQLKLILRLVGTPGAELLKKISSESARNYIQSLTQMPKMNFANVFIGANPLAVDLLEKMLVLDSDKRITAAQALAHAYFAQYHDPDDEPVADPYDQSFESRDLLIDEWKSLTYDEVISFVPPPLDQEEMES
- method summary: p38 competitive inhibition assay (KINOMEscan, Eurofins DiscoverX)
- experimental conditions: mean of two biological replicates
assay metric: Kd

INSERT INTO results (mol, target_under_test, measured_result) VALUES
  ('Cc1cc(C)cc(Nc2nccc(-c3c(-c4ccc(F)cc4)nnn3C3CCNCC3)n2)c1', 'p38α (Homo sapiens, UniProt Q16539)', '120 nM'),
  ('Cc1cc(C)cc(Nc2cccc(-c3c(C)nnn3C3CCNCC3)n2)c1', 'p38α (Homo sapiens, UniProt Q16539)', '> 25 nM'),
  ('Cc1cc(C)cc(Oc2cccc(-c3c(-c4ccc(C(F)(F)F)cc4)ncn3C3CCN(CCN)CC3)n2)c1', 'p38α (Homo sapiens, UniProt Q16539)', '> 30000 nM');
